# System name: human Edg-1 receptor (Homo sapiens)
# Construct: FLAG (N); expressed in transfected cells; membrane preparation
# Sequence (P21453 whole entry): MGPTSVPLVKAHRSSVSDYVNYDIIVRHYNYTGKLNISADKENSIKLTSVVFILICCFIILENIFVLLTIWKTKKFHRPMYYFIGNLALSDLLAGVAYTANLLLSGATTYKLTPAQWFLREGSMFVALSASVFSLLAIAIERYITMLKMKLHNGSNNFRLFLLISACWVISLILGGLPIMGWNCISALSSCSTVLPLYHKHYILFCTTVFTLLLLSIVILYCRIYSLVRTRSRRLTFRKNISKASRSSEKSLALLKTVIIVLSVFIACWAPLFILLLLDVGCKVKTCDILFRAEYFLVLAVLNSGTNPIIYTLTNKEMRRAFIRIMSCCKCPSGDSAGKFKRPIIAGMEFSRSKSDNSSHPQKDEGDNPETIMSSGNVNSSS
# Experiment: GTP-γ-S assay using human Edg-1 receptors (scintillation proximity assay, CHO Flp-In membrane preparation)
# Type: biochemical
# Condition info: test compound 10 μM; high control 10 μM S1P regarded as 100% activation; background-corrected; triplicate
Each entry below carries its recorded Edg-1 receptor activation in percent of the activation by 10 μM S1P (% Activation).
Please provide the amount together with its unit, number first.

> print(dat)
                                   compound  reading
1  O=C(O)[C@@H]1CCCN1C(=O)CCc1ccc(-c2nc3cnc(Oc4ccccc4F)nc3o2)cc1     103%
2  Cc1cc(-c2nc3cnc(Oc4ccccc4F)nc3o2)cc(C)c1OC(C)C(=O)N1CCC[C@H]1C(=O)O (stereo partly shown)      93%
3  O=C(O)[C@@H]1CCCN1C(=O)/C=C/c1ccc(-c2nc3cnc(Oc4ccccc4F)nc3o2)cc1      82%

Please look at Cc1cc(-c2nc3cnc(Oc4ccccc4F)nc3o2)cc(C)c1OCC(=O)N1CCC[C@H]1C(=O)O and tell me its recorded Edg-1 receptor activation in percent of the activation by 10 μM S1P (% Activation) on human Edg-1 receptor (Homo sapiens).
115%
